- Test system: Echinochloa crus-galli
- assay-notes: Post-emergence herbicidal action against ECHCG
- Type: in vivo
- assay-conditions: 5 g/ha, visual assessment about 3 weeks after treatment
Exercise: for every item that follows, state its recorded Post-emergence action against ECHCG in %.
One number for each entry, in %.

• CCN(CC)C(=O)c1c(C(F)(F)F)ccc(C(=O)Nc2nnnn2CC)c1C [Example 2-31] = 80
• CCN(CC)C(=O)c1c(C(F)(F)F)ccc(C(=O)Nc2nnnn2C)c1C [Example 1-31] = 90
• Cn1nnnc1NC(=O)c1ccc(C(F)(F)F)c(C(=O)N2CCCC2)c1Cl [Example 1-152] = 80

Next, consider the following molecule.
Would you kindly share the measured Post-emergence action against ECHCG in % for CCN(C)C(=O)c1c(C(F)(F)F)ccc(C(=O)Nc2nnnn2C)c1Cl [Example 1-124] ?
100

###

- System: Amaranthus retroflexus
- assay-notes: Post-emergence herbicidal action against AMARE
- Type: in vivo
- assay-conditions: 5 g/ha, visual assessment about 3 weeks after treatment
measured-property: Post-emergence action against AMARE in % (%)
One number for each entry, in %.

• CCN(CC)C(=O)c1c(C(F)F)ccc(C(=O)Nc2nnnn2CC)c1Cl = 100

// for each compound below, give its Post-emergence action against AMARE in %
1. CCCn1nnnc1NC(=O)c1ccc(C(F)(F)F)c(C(=O)N(C)C)c1Cl
2. CN(C(=O)c1c(Cl)ccc(C(=O)Nc2nnnn2C)c1Cl)c1ccccc1

[100, 80]

###

Please provide measured Pre-emergence action against AMARE for the entries that follow.
- System: Amaranthus retroflexus
- assay-notes: Pre-emergence herbicidal action against AMARE
- Format: in vivo
- assay-conditions: 20 g/ha; visual score after 3 weeks vs untreated controls
- Text: Seeds of monocotyledonous and dicotyledonous weed plants and crop plants are laid out in sandy loam soil in wood-fiber pots and covered with soil. […] The damage to the test plants is scored visually after a test period of 3 weeks by comparison with untreated controls (herbicidal activity in percent (%): 100% activity=the plants have died, 0% activity=like control plants). […]
Numbers only, in %.

// known answers, use as guide
• CCn1nnnc1NC(=O)c1ccc(C(F)(F)F)c(C(=O)n2cccn2)c1Cl = 100
• Cc1c(C(=O)Nc2nnnn2C)ccc(C(F)(F)F)c1C(=O)N(C)C = 100

I would be grateful if you could provide Pre-emergence action against AMARE for each of the following entries.
1. CCn1nnnc1NC(=O)c1ccc(C(F)(F)F)c(C(=O)N(C)C)c1Cl
2. CCOC(=O)[C@@H]1CCCN1C(=O)c1c(C(F)(F)F)ccc(C(=O)Nc2nnnn2C)c1Cl

90
90

# return Pre-emergence action against AMARE for each item in the list
1. CN(CC1CC1)C(=O)c1c(C(F)(F)F)ccc(C(=O)Nc2nnnn2C)c1Cl
2. CCN(C)C(=O)c1c(C(F)(F)F)ccc(C(=O)Nc2nnnn2C)c1Cl

[80, 90]

###

- Tested on: Avena fatua
- assay-notes: Pre-emergence herbicidal action against AVEFA
- Format: in vivo
- assay-conditions: 320 g/ha; visual score after 3 weeks vs untreated controls
Consider the following molecules; for each one, report its Pre-emergence action against AVEFA.
Numbers only, in %.

Please review the following examples before continuing.
* CCN(C)C(=O)c1c(C(F)(F)F)ccc(C(=O)Nc2nnnn2C)c1Cl | 100
* CCCn1nnnc1NC(=O)c1ccc(C(F)(F)F)c(C(=O)n2cccn2)c1Cl | 90
* CCN(C)C(=O)c1c(C(F)(F)F)ccc(C(=O)Nc2nnnn2CC)c1Cl | 100
* CN(CC1CC1)C(=O)c1c(C(F)(F)F)ccc(C(=O)Nc2nnnn2C)c1Cl | 100

Continue with the next molecule.
Item Cn1nnnc1NC(=O)c1ccc(C(F)(F)F)c(C(=O)N2CCCC2)c1Cl has what recorded Pre-emergence action against AVEFA?
100

###

- Tested on: Echinochloa crus-galli
- assay-notes: Post-emergence herbicidal action against ECHCG
- Type: in vivo
- assay-conditions: 5 g/ha, visual assessment about 3 weeks after treatment
For each record, write down the corresponding Post-emergence action against ECHCG in %.
Give bare numbers, in %.

Observe how each entry below is paired with its result.
- Cn1nnnc1NC(=O)c1ccc(C(F)(F)F)c(C(=O)n2cccn2)c1Cl: 90
- CCCn1nnnc1NC(=O)c1ccc(C(F)(F)F)c(C(=O)N(C)CC2CC2)c1Cl: 90
- CCn1nnnc1NC(=O)c1ccc(C(F)(F)F)c(C(=O)n2cccn2)c1Cl: 80
- CCN(C(=O)c1c(C(F)(F)F)ccc(C(=O)Nc2nnnn2CC)c1C)C1CC1: 90
- CCN(C(=O)c1c(C(F)(F)F)ccc(C(=O)Nc2nnnn2C)c1C)C1CC1: 100

Give Post-emergence action against ECHCG in % for each of the items listed below.
1. CCn1nnnc1NC(=O)c1ccc(C(F)F)c(C(=O)N(C)C)c1C
2. CCn1nnnc1NC(=O)c1ccc(C(F)F)c(C(=O)N(C)C)c1Cl
3. CN(CC(F)F)C(=O)c1c(C(F)F)ccc(C(=O)Nc2nnnn2C)c1Cl
4. CCCn1nnnc1NC(=O)c1ccc(C(F)(F)F)c(C(=O)N(C)C)c1Cl
5. CCN(CC)C(=O)c1c(C(F)(F)F)ccc(C(=O)Nc2nnnn2C)c1Cl
6. CCn1nnnc1NC(=O)c1ccc(C(F)(F)F)c(C(=O)N(C)C2CC2)c1C
7. CN(C)C(=O)c1c(C(F)(F)F)ccc(C(=O)Nc2nnnn2C)c1Cl
8. CCCn1nnnc1NC(=O)c1ccc(C(F)(F)F)c(C(=O)N(C)CC)c1Cl

80
80
80
90
80
90
100
90

Look at each compound and report its Post-emergence action against ECHCG in %.
1. CN(C)C(=O)c1c(C(F)F)ccc(C(=O)Nc2nnnn2C)c1Cl
2. CCn1nnnc1NC(=O)c1ccc(C(F)(F)F)c(C(=O)N(C)CC2CC2)c1Cl
3. CN(C(=O)c1c(C(F)F)ccc(C(=O)Nc2nnnn2C)c1Cl)C1CC1
4. CN(CC1CC1)C(=O)c1c(C(F)(F)F)ccc(C(=O)Nc2nnnn2C)c1Cl
5. CCn1nnnc1NC(=O)c1ccc(C(F)(F)F)c(C(=O)N(C)C)c1Cl

90
90
90
80
100

###

- Tested on: Alopecurus myosuroides
- assay-notes: Pre-emergence herbicidal action against ALOMY
- Format: in vivo
- assay-conditions: 320 g/ha; visual score after 3 weeks vs untreated controls
measured-property: Pre-emergence action against ALOMY (%)
One number for each entry, in %.

* Cn1nnnc1NC(=O)c1ccc(C(F)(F)F)c(C(=O)n2cccn2)c1Cl [Example 1-153] | 100
* CCCn1nnnc1NC(=O)c1ccc(C(F)(F)F)c(C(=O)N(C)CC2CC2)c1Cl [Example 3-126] | 90
* Cc1ccccc1N(C)C(=O)c1c(Cl)ccc(C(=O)Nc2nnnn2C)c1Cl [Example 1-399] | 100
* CN(C)C(=O)c1c(C(F)(F)F)ccc(C(=O)Nc2nnnn2C)c1Cl [Example 1-123] | 100
* CN(CC1CC1)C(=O)c1c(C(F)(F)F)ccc(C(=O)Nc2nnnn2C)c1Cl [Example 1-126] | 90
* Cn1nnnc1NC(=O)c1ccc(C(F)(F)F)c(C(=O)N2CCCC2)c1Cl [Example 1-152] | 100
* CCCn1nnnc1NC(=O)c1ccc(C(F)(F)F)c(C(=O)N2CCCC2)c1Cl [Example 3-152] | 80

Then this compound:
# value lookup — system Alopecurus myosuroides, readout Pre-emergence action against ALOMY, item CCN(C)C(=O)c1c(C(F)(F)F)ccc(C(=O)Nc2nnnn2CC)c1Cl [Example 2-124]
90

###

- System: Cyperus esculentus
- assay-notes: Post-emergence herbicidal action against CYPES
- Format: in vivo
- assay-conditions: 80 g/ha, visual assessment about 3 weeks after treatment
measured-property: Post-emergence action against CYPES in %

Answered cases to consult:
- Cn1nnnc1NC(=O)c1ccc(C(F)(F)F)c(C(=O)n2cccn2)c1Cl: 90%
- CCCn1nnnc1NC(=O)c1ccc(C(F)(F)F)c(C(=O)N2CCCC2)c1Cl: 80%
- CCCn1nnnc1NC(=O)c1ccc(C(F)(F)F)c(C(=O)N(C)CC)c1Cl: 80%
- CCN(C)C(=O)c1c(C(F)(F)F)ccc(C(=O)Nc2nnnn2C)c1Cl: 80%
- CCn1nnnc1NC(=O)c1ccc(C(F)(F)F)c(C(=O)N(C)C)c1Cl: 90%
- Cn1nnnc1NC(=O)c1ccc(C(F)(F)F)c(C(=O)N2CCCC2)c1Cl: 80%

Consider the following items and state reported Post-emergence action against CYPES in % for each.
1. CN(C)C(=O)c1c(C(F)(F)F)ccc(C(=O)Nc2nnnn2C)c1Cl
2. CCN(C)C(=O)c1c(C(F)(F)F)ccc(C(=O)Nc2nnnn2CC)c1Cl

1. 90%
2. 90%

###

- System: Matricaria inodora
- assay-notes: Post-emergence herbicidal action against MATIN
- Assay type: in vivo
- assay-conditions: 80 g/ha, visual assessment about 3 weeks after treatment
Could you please report measured Post-emergence action against MATIN in % for the items listed next?
Give bare numbers, in %.

- CCN(C)C(=O)c1c(C(F)(F)F)ccc(C(=O)Nc2nnnn2C)c1Cl: 100

Please state Post-emergence action against MATIN in % for every compound in the list that follows.
1. Cn1nnnc1NC(=O)c1ccc(C(F)(F)F)c(C(=O)N2CCCC2)c1Cl
2. CN(CC1CC1)C(=O)c1c(C(F)(F)F)ccc(C(=O)Nc2nnnn2C)c1Cl

1. 90
2. 100
